# SYSTEM_TESTED: HLA-A*0301 (human)
# PROTOCOL_TEXT: competitive inhibition of 125I-labelled probe peptide binding to purified HLA, gel filtration
# TEST_CONTEXT: scale: ratio
Would you mind telling me the reported binding affinity ratio (relative binding to standard peptide) of each entry?
Answer with the value's number alone.

If you can, please state the reported binding affinity ratio (relative binding to standard peptide) value of WIRTPPAY (modifications not checked) [HBV NUC 125 peptide WIRTPPAY] . -0.0002

Try this binder next: YLVSFGVWIR (modifications not checked) [HBV NUC 118 peptide …] 0.0005

Try this binder next: YLPLDKGIK (modifications not checked) 0.0001

Try this binder next: YSLNFMGY (modifications not checked) [HBV POL 580 peptide YSLNFMGY] -0.0002

Try this binder next: WLQFRNSK (modifications not checked) [HBV POL 314 peptide WLQFRNSK] -0.0002

Try this binder next: YLPLDKGIKPY (modifications not checked) -0.0004

Taken from patent US20090311283A1.
